I'd be grateful if you could share measured protein stability index for these entries.
B1: FAM46D (parent)
chain: FQEAMTHLQHKLICTRKPEEIRGG

- Variants of: B1
- protocol_description: protein stability index of a GFP-peptide fusion (GPS, HEK-293T) (PSI 1-6); higher = more stable;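 also: lentivirally expressed fusions sorted by FACS into six bins by GFP to DsRed ratio, PSI derived from sequencing read proportions per bin multiplied by bin number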
- stated_conditions: c terminus: a fixed tail appended
Give your answer as a number; write no unit.

State its protein stability index: FQEAMTHLQHKLICTIKPEEIRGG [R16I]
2.08

State its protein stability index: FQAAMTHLQHKLICTRKPEEIRGG [E3A]
1.82

State its protein stability index: FQEAMTHLQHVLICTRKPEEIRGG [K11V]
1.86

State its protein stability index: FQEAMTHLQHKLICTRKMEEIRGG [P18M]
2.24

State its protein stability index: FQEAMTHLQHKLINTRKPEEIRGG [C14N]
2.71

State its protein stability index: FQEAMTHLQHKLICTAKPEEIRGG [R16A]
3.35

State its protein stability index: FQRAMTHLQHKLICTRKPEEIRGG [E3R]
1.82

State its protein stability index: FQEAMTHLQHKLICTRKPEQIRGG [E20Q]
2.33

State its protein stability index: FQESMTHLQHKLICTRKPEEIRGG [A4S]
2.99

State its protein stability index: FQEAMTHLQHKLICTRKPSEIRGG [E19S]
2.76

State its protein stability index: FQEAMTHLDHKLICTRKPEEIRGG [Q9D]
2.89

State its protein stability index: FQEAMTHLQHKDICTRKPEEIRGG [L12D]
2.98

State its protein stability index: FQEAMTHLQHKLICTMKPEEIRGG [R16M]
2.21

State its protein stability index: FQEAMTHLQHKLICTRKPEEIVGG [R22V]
3.04

State its protein stability index: FQEAMTHLQHKLVCTRKPEEIRGG [I13V]
2.76

State its protein stability index: FQEAMTHLQLKLICTRKPEEIRGG [H10L]
2.24

State its protein stability index: FQEAMTSLQHKLICTRKPEEIRGG [H7S]
3.3

State its protein stability index: FQEAMTHLQHKLICTRKPEEIYGG [R22Y]
1.91

State its protein stability index: FQEAMTHLQHKLICTRKPEEERGG [I21E]
2.98

State its protein stability index: FQEAMTHLQHKLICTRTPEEIRGG [K17T]
2.65

State its protein stability index: FQEAMTHLQCKLICTRKPEEIRGG [H10C]
2.72

State its protein stability index: FQEAMTHLFHKLICTRKPEEIRGG [Q9F]
2.61
